Where these numbers come from: patent US20130143929A1

# Tested on: Blumeria graminis f. sp. tritici (also known as Erysiphe graminis f. sp. tritici, the causal agent of wheat powdery mildew)
# PROCEDURE DETAILS: Test D: wheat powdery mildew, preventive spray on wheat seedlings, visual disease rating
# Format: in vivo
# APPLIED CONDITIONS: asterisk: 40 ppm test suspension; 100 = 100% disease control, 0 = no control
Marks after values point to notes of the source that are not given here.
READOUT TYPE: Test D rating (% disease control, wheat powdery mildew)

Here is how some molecules turned out for Test D rating (% disease control, wheat powdery mildew).
COc1cc(F)c(-n2c(C)nc(Br)c2C(O)c2ccc(F)cc2Cl)c(F)c1 (stereo not shown) [compound 392]	0* %
COc1cc(F)c(-n2c(C)nc(Br)c2C(O)c2ccc(F)cc2F)c(F)c1 (stereo not shown) [compound 412]	0* %
Cc1nc(Cl)c(C(O)c2ccc(F)cc2Br)n1-c1c(F)cccc1Cl (stereo not shown) [compound 386]	73* %

Field: next molecule
Indicate the recorded Test D rating (% disease control, wheat powdery mildew) value for this molecule: COc1cc(F)c(-n2c(C)nc(Cl)c2C(O)c2ccc(F)cc2Cl)c(F)c1 (stereo not shown) [compound 403]
0* %
